Test system: Pepsin
Construct: purchased Merck Millipore
methodSummary: Protease stability in simulated gastric fluid (Pepsin-SGF, FaSSGF)
Assay type: in vitro ADME
conditionDetails: simulated gastric fluid with pepsin (Pepsin-SGF), 60 min, 1 μM peptide, 37° C., read-out: FaSSGF 60 (min), remaining percent of peptide
Positions of bridges follow the written chain, without caps; N, C: chain ends. Non-standard residues stand in square brackets, D forms with d. Residues, ends and D or L forms follow the SMILES beside them. *: point of attachment. Trp(7-Me) = Cc1cccc2c(C[C@H](N)C(=O)O)c[nH]c12; 2Nal = N[C@@H](Cc1ccc2ccccc2c1)C(=O)O; 3Pal = N[C@@H](Cc1cccnc1)C(=O)O; Me2NCH2CH2 = CN(C)CC*; Aib = CC(C)(N)C(=O)O; Ava = NCCCCC(=O)O; Sar = CNCC(=O)O
measurementKind: remaining at 1 h, 1 µM (%)
Answer with a number only, understood to be in %.

## Task Give recorded remaining at 1 h, 1 µM with Pepsin for the following molecule: Cc1cccc2c(C[C@@H]3NC(=O)[C@H]([C@@H](C)O)NC(=O)[C@H](CC(N)=O)NC(=O)[C@@H]4CSSC[C@H](NC(=O)[C@H](CCC(N)=O)NC3=O)C(=O)N[C@@H](Cc3ccc(OCCN(C)C)cc3)C(=O)N[C@@H](Cc3ccc5ccccc5c3)C(=O)NC(C)(C)C(=O)N[C@H](C(=O)N[C@@H](CC(N)=O)C(=O)N[C@@H](Cc3cccnc3)C(=O)N(C)CC(N)=O)CCC(=O)NCCCCC(=O)N4)c[nH]c12 [compound 62] ([Ava]CNT[Trp(7-Me)]QCY(Me2NCH2CH2)[2Nal][Aib]EN[3Pal][Sar]-NH2; disulfide 2-7; lactam N-11)
## Result 100
